- System: SF-539 CNS
- Method Summary: NCI-60 one-dose screen, 48 h (100 = growth as untreated, 0 = no growth, -100 = all killed)
- Assay Conditions: 10 µM unless noted
Compounds without any hit were thinned out: in the full panel of roughly 83,000, 20% have a hit.
Assay Readout: growth (%)

INSERT INTO measurements (compound, assay_readout, reported_measurement) VALUES
  ('COc1ccc(-c2c(-c3cc(OC)c4c(c3)OCO4)noc2N)cc1', 'growth', 0.998),
  ('COc1ccc(C2C=C(c3ccc(OC)c(OC)c3)N=C3SC=C(C)N32)c(Br)c1 (stereo not given)', 'growth', 93.6),
  ('O=C(NS(=O)(=O)c1ccc2ccccc2c1)n1cc(-c2ccncc2)c(-c2ccc(Cl)c(O)c2)n1', 'growth', 80.9),
  ('COc1ccc(-c2cnoc2-c2ccc(OC)cc2O)cc1', 'growth', 19.7),
  ('O=S(=O)(NCCNc1nccc(-c2c(-c3ccc(F)cc3)nc3sccn23)n1)c1ccc(F)cc1', 'growth', 102);
